Task for the reader: assign each of the following molecules its reported Ratio Ki.
# Organism: Homo sapiens
# MEASUREMENT DESCRIPTION: Selectivity ratio of Ki for human recombinant adenosine A2B receptor to Ki for human recombinant adenosine A2A receptor
When you answer, write just the number.

Report Ratio Ki for `Cn1c(=O)c2[nH]c(-c3ccc(OCCN4CCOCC4)cc3)nc2n(C)c1=O`
4.3

Report Ratio Ki for `Cn1c(=O)c2[nH]c(-c3ccc(OCCC4CCNCC4)cc3)nc2n(C)c1=O`
10

Report Ratio Ki for `Cn1c(=O)c2[nH]c(-c3ccc(OCCCN4CCN(Cc5ccccc5Cl)CC4)cc3)nc2n(C)c1=O`
1.4

Report Ratio Ki for `Cn1c(=O)c2[nH]c(-c3ccc(OC4CCCC4)cc3)nc2n(C)c1=O`
14
